pIC50: −log10 of the molar value.
System: IRAK4 (Homo sapiens (Human)) | Read-out: pIC50 | Origin: multiple publications
Rule: true (1) for pIC50 not less than 8, false (0) for anything less.

Example results:
| Compound | Discrete Label |
| --- | --- |
| C=CC(=O)N1CC(c2nc(-c3ccc(NC(=O)c4cccc(-c5[nH]ncc5Cl)n4)c(F)c3)no2)CC(F)(F)C1 (stereo not drawn) | false (0) |
| CC(C)(O)[C@H](F)CNC(=O)c1cnc(Nc2ccc3ncc(F)cc3n2)cc1NC1CC1 | true (1) |
| CC[C@H](C)Oc1nc2nc(C34CCC(CF)(C3)OC4)cn2cc1C(=O)Nc1cccn(C2CC2)c1=O (stereo partly drawn) | true (1) |
| NC(=O)[C@@H]1[C@H](Nc2nc(Nc3cccc(C(=O)N4CCCC4)c3)ncc2-c2ccc(F)cc2)[C@H]2C=C[C@@H]1C2 | false (0) |
| CC(C)(O)C1CCC(NC(=O)c2cnc(Nc3ccc4ncsc4c3)cc2NC2CCCOC2)CC1 (stereo not drawn) | true (1) |

Alright, here's another compound for you.
Say whether OC[C@H]1C[C@@H](Nc2nc(Nc3ccc4cc[nH]c4c3)ncc2-c2nc3ccccc3s2)[C@H](O)[C@@H]1O shows pIC50 of 8 or more.
false (0)
